TESTED ON: D1 dopamine receptors (Homo sapiens (Human), UniProt P21728)
Sequence (P21728 whole entry): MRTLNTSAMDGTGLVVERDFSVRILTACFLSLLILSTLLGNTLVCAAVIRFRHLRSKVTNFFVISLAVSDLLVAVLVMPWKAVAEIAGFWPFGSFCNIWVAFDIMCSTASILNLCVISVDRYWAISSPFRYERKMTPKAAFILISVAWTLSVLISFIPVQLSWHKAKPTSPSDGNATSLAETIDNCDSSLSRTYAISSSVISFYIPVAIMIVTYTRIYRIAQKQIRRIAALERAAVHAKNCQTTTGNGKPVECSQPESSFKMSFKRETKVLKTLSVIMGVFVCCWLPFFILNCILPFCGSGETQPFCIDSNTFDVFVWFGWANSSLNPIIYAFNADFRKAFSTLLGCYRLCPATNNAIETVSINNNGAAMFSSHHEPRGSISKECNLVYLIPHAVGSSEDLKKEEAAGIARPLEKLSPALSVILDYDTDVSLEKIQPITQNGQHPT
ASSAY PROCEDURE: Radioligand binding assay, D1 receptor, HEK293T membrane homogenates
CONDITION INFO: HEK293T membranes, [3H]SCH23390
PARAMETER MEASURED: Ki (nM)
Give the value in nM but do not write nM after it.

Problem: Param item = COc1cc2c(cc1O)[C@@H]1Cc3c(OC)ccc(OC)c3CN1CC2 ; retrieve measured Ki.
Result: 3.7

Problem: Param item = COc1cc2c(c(OC)c1)CN1CCc3cc4c(cc3[C@@H]1C2)OCO4 ; retrieve measured Ki.
Result: 64.1

Problem: Param item = COc1ccc(OC)c2c1C[C@H]1c3cc(O)c(O)cc3CCN1C2 ; retrieve measured Ki.
Result: 6.72

Problem: Param item = COc1cc2c(cc1O)[C@@H]1Cc3cc(C)cc(C)c3CN1CC2 ; retrieve measured Ki.
Result: 28.9

Problem: Param item = COc1cc2c(c(OC)c1)CN1CCc3cc(OC)c(O)cc3[C@@H]1C2 ; retrieve measured Ki.
Result: 2.53

Problem: Param item = COc1cc2c(cc1OC)[C@@H]1Cc3c(CO)c(OC)cc(OC)c3CN1CC2 ; retrieve measured Ki.
Result: 74.5

Problem: Param item = COc1c(O)ccc2c1CN1CCc3cc4c(cc3[C@@H]1C2)OCC4 ; retrieve measured Ki.
Result: 17.3

###

TESTED ON: dopamine D1 receptor (Macaca mulatta (Rhesus macaque))
Sequence (O77680 whole entry): as the sequence (P21728 whole entry) above, with N311I counted along it
ASSAY PROCEDURE: Affinity on dopamine D1 receptor, competition with [3H] SCH23390
Assay type: binding
Parameters: concentration or dose not given beside the values
Classify by measured D1 receptor inhibition ratio (%): label 1 if it is equal to or exceeds 80%, label 0 if it is smaller.

Problem: # check: D1 receptor inhibition ratio (%) of COc1ccc2c(c1)CCN1Cc3cc(OC)c(OC)cc3C[C@@H]21 is greater than or equal to 80%
Result: label 0

Problem: # check: D1 receptor inhibition ratio (%) of COc1c(O)ccc2c1CN1CCc3cc4c(cc3[C@@H]1C2)OCC4 is greater than or equal to 80%
Result: label 0

Problem: # check: D1 receptor inhibition ratio (%) of COc1cc2c(cc1OC)C1Cc3cc(C)cc(C)c3CN1CC2 (racemic) is greater than or equal to 80%
Result: label 1

Problem: # check: D1 receptor inhibition ratio (%) of COc1cc2c(cc1OC)C1Cc3cc(O)c(O)cc3CN1CC2 (racemic) is greater than or equal to 80%
Result: label 1

Problem: # check: D1 receptor inhibition ratio (%) of COc1cc2c(cc1OC)[C@@H]1Cc3cc(OC)c(OC)c(OC)c3[C@H](C)N1CC2 is greater than or equal to 80%
Result: label 0

Problem: # check: D1 receptor inhibition ratio (%) of COc1cc(OC)c2c(c1CO)C[C@H]1c3cc4c(cc3CCN1C2)OCO4 is greater than or equal to 80%
Result: label 1

Problem: # check: D1 receptor inhibition ratio (%) of COc1cc2c(cc1O)[C@@H]1Cc3cc(C)cc(C)c3CN1CC2 is greater than or equal to 80%
Result: label 1

Problem: # check: D1 receptor inhibition ratio (%) of COc1cc2c(cc1OC)[C@@H]1Cc3c(OC)ccc(OC)c3CN1CC2 is greater than or equal to 80%
Result: label 1

###

TESTED ON: dopamine D2 receptor (Homo sapiens (Human), UniProt P14416)
Sequence (P14416 whole entry, species assumed): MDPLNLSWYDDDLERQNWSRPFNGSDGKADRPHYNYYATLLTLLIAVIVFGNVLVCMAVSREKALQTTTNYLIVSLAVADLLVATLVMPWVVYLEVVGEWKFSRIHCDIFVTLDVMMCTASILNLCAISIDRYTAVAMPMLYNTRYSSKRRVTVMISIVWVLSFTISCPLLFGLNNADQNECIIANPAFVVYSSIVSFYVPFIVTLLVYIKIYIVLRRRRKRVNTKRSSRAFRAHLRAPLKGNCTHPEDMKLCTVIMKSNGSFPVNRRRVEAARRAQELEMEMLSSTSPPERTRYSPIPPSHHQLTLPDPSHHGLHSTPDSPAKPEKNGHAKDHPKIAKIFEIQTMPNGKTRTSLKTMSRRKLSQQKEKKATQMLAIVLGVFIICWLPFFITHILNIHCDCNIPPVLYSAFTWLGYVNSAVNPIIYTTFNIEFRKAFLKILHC
ASSAY PROCEDURE: Inhibition property on dopamine D2 receptor, cAMP detection in CHO cells stably expressing D2 receptor
CONDITION INFO: 10 μM Forskoline and 10 μM dopamine, read-out: D2 receptor Antagonist IC50
Would you mind telling me the reported IC50 of each entry?
Give the value in µM but do not write µM after it.

Problem: Please state recorded IC50 (tested on dopamine D2 receptor (Homo sapiens (Human), UniProt P14416)) of COc1cc2c(cc1OC)[C@@H]1Cc3c(OC)ccc(OC)c3CN1CC2
Result: 4.03

Problem: Please state recorded IC50 (tested on dopamine D2 receptor (Homo sapiens (Human), UniProt P14416)) of COc1cc2c(cc1OC)[C@@H]1Cc3cc(C)cc(C)c3CN1CC2
Result: 16.2

Problem: Please state recorded IC50 (tested on dopamine D2 receptor (Homo sapiens (Human), UniProt P14416)) of COc1cc2c(cc1OC)C1Cc3c(OC)ccc(OC)c3CN1CC2 (racemic)
Result: 3.3

Problem: Please state recorded IC50 (tested on dopamine D2 receptor (Homo sapiens (Human), UniProt P14416)) of COc1cc2c(cc1OC)CN1CCc3cc(O)c(O)cc3C1C2 (racemic)
Result: 0.591

Problem: Please state recorded IC50 (tested on dopamine D2 receptor (Homo sapiens (Human), UniProt P14416)) of COc1cc2c(cc1OC)C1Cc3cc(C)cc(C)c3CN1CC2 (racemic)
Result: 15.6

###

TESTED ON: 5-HT1A receptor (Homo sapiens (Human))
Sequence (P08908 whole entry): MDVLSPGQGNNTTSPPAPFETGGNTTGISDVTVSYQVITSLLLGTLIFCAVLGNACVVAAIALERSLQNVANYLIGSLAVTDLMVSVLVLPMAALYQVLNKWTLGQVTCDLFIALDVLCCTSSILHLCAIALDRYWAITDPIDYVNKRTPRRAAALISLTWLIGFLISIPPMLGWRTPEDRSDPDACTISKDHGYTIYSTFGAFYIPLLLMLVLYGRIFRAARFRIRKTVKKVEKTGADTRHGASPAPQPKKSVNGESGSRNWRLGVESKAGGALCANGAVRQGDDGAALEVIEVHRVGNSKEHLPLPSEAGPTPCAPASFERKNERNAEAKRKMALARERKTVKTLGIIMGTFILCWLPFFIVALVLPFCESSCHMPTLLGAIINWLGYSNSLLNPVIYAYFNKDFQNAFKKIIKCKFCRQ
PARAMETER MEASURED: pKi
The meaning of pKi here: minus log10 of the concentration in molar units.

Problem: Param item = COc1ccc(OC)c2c1C[C@H]1c3cc4c(cc3CCN1C2)CCO4 ; retrieve measured pKi.
Result: 6.30

Problem: Param item = COc1cc2c(cc1O)[C@@H]1Cc3c(OC)ccc(OC)c3CN1CC2 ; retrieve measured pKi.
Result: 6.31

Problem: Param item = COc1cc2c(c(OC)c1)CN1CCc3cc(OC)c(OC)cc3[C@@H]1C2 ; retrieve measured pKi.
Result: 6.14

###

Would you mind telling me the reported pIC50 of each entry?
TESTED ON: D2 dopamine receptor (Rattus norvegicus (Rat))
Sequence (P61169 whole entry): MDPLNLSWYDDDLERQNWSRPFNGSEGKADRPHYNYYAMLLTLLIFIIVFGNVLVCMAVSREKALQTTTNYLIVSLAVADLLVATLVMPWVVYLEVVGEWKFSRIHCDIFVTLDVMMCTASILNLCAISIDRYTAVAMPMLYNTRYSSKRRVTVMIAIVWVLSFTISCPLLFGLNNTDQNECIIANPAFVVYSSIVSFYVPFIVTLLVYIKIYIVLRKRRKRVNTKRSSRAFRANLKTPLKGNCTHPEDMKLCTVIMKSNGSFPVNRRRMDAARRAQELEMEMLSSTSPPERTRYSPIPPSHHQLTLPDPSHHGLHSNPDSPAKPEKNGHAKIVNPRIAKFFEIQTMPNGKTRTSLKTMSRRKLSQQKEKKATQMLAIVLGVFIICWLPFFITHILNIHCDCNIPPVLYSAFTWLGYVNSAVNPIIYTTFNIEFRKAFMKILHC
ASSAY PROCEDURE: Affinity on dopamine D2 receptor, competition with [3H] Spiperone
The meaning of pIC50 here: minus log10 of the concentration in molar units.

Problem: Param item = COc1cc2c(cc1OC)[C@@H]1Cc3cc(C)cc(C)c3CN1CC2 ; retrieve measured pIC50.
Result: 5.94

Problem: Param item = COc1cc2c(cc1OC)[C@@H]1Cc3c(OC)ccc(OC)c3CN1CC2 ; retrieve measured pIC50.
Result: 5.76

Problem: Param item = COc1cc2c(cc1O)[C@@H]1Cc3cc(C)cc(C)c3CN1CC2 ; retrieve measured pIC50.
Result: 6.34

Problem: Param item = c1c2c(cc3c1OCO3)CN1CCc3cc4c(cc3[C@@H]1C2)OCO4 ; retrieve measured pIC50.
Result: 5.91

###

TESTED ON: D2 dopamine receptor (Rattus norvegicus (Rat))
ASSAY PROCEDURE: Affinity on dopamine D2 receptor, competition with [3H] Spiperone
PARAMETER MEASURED: Ki (nM)
Give the value in nM but do not write nM after it.

Problem: Param item = COc1cc2c(cc1OC)[C@@H]1Cc3cc(C)cc(C)c3CN1CC2 ; retrieve measured Ki.
Result: 224

Problem: Param item = c1c2c(cc3c1OCO3)CN1CCc3cc4c(cc3[C@@H]1C2)OCO4 ; retrieve measured Ki.
Result: 240

Problem: Param item = COc1cc2c(cc1O)[C@@H]1Cc3cc(C)cc(C)c3CN1CC2 ; retrieve measured Ki.
Result: 161

Problem: Param item = COc1cc2c(cc1OC)[C@@H]1Cc3c(OC)ccc(OC)c3CN1CC2 ; retrieve measured Ki.
Result: 334

###

TESTED ON: 5-HT1A receptor (Homo sapiens (Human))
ASSAY PROCEDURE: Affinity on 5-HT1A receptor, competition with [3H] 8-OH-DPAT
Type: binding
PARAMETER MEASURED: 5-HT1A receptor inhibition ratio (%)
Give the value in % but do not write % after it.

Problem: Param item = COc1cc(OC)c2c(c1CO)C[C@H]1c3cc4c(cc3CCN1C2)OCO4 ; retrieve measured 5-HT1A receptor inhibition ratio (%).
Result: 88.63

Problem: Param item = COc1ccc(OC)c2c1C[C@H]1c3cc4c(cc3CCN1C2)OCCO4 ; retrieve measured 5-HT1A receptor inhibition ratio (%).
Result: 95.36

Problem: Param item = COc1cc2c(cc1O)[C@@H]1Cc3c(OC)ccc(OC)c3CN1CC2 ; retrieve measured 5-HT1A receptor inhibition ratio (%).
Result: 80.41

Problem: Param item = COc1cc2c(c(OC)c1)CN1CCc3cc(OC)c(OC)cc3[C@@H]1C2 ; retrieve measured 5-HT1A receptor inhibition ratio (%).
Result: 90.77

###

Would you mind telling me the reported D2 receptor inhibition ratio (%) of each entry?
TESTED ON: D2 dopamine receptor (Rattus norvegicus (Rat))
ASSAY PROCEDURE: Affinity on dopamine D2 receptor, competition with [3H] Spiperone
Format: binding
Design: concentration or dose not given beside the values
Give the value in % but do not write % after it.

Problem: Param item = COc1cc2c(cc1OC)[C@@H]1Cc3cc4c(cc3[C@H](C)N1CC2)OCO4 ; retrieve measured D2 receptor inhibition ratio (%).
Result: 57.1

Problem: Param item = COc1cc2c(cc1OC)C1Cc3c(OC)ccc(OC)c3CN1CC2 (racemic) ; retrieve measured D2 receptor inhibition ratio (%).
Result: 75.75

Problem: Param item = COc1cc2c(cc1OC)[C@@H]1Cc3cc4c(cc3CN1CC2)OCO4 ; retrieve measured D2 receptor inhibition ratio (%).
Result: 41.7

Problem: Param item = COc1cc2c(cc1O)[C@@H]1Cc3cc(C)cc(C)c3CN1CC2 ; retrieve measured D2 receptor inhibition ratio (%).
Result: 90.10

Problem: Param item = COc1cc2c(cc1OC)C1Cc3cc(O)c(O)cc3CN1CC2 (racemic) ; retrieve measured D2 receptor inhibition ratio (%).
Result: 10.6

Problem: Param item = c1c2c(cc3c1OCO3)CN1CCc3cc4c(cc3[C@@H]1C2)OCO4 ; retrieve measured D2 receptor inhibition ratio (%).
Result: 89.3

Problem: Param item = COc1ccc(OC)c2c1C[C@H]1c3cc4c(cc3CCN1C2)OCCO4 ; retrieve measured D2 receptor inhibition ratio (%).
Result: 28.67

Problem: Param item = COc1ccc2c(c1)CCN1Cc3cc(OC)c(OC)cc3C[C@@H]21 ; retrieve measured D2 receptor inhibition ratio (%).
Result: 51.5

Source listed as patent US9359372B2.
